# experimentalSystem: Serine/threonine-protein kinase mTOR (Homo sapiens, UniProt P42345)
quantityName: pIC50
Lab note — pIC50 values are minus log10 of concentrations in M.

Item: O=c1cc(N2CCOCC2)oc2c1ccc1ccccc12 Test system: Serine/threonine-protein kinase mTOR (Homo sapiens, UniProt P42345) Read-out: pIC50 Value: ?
5.19

----------
# experimentalSystem: Serine/threonine-protein kinase ATR (Homo sapiens)
# Sequence (Q13535 whole entry): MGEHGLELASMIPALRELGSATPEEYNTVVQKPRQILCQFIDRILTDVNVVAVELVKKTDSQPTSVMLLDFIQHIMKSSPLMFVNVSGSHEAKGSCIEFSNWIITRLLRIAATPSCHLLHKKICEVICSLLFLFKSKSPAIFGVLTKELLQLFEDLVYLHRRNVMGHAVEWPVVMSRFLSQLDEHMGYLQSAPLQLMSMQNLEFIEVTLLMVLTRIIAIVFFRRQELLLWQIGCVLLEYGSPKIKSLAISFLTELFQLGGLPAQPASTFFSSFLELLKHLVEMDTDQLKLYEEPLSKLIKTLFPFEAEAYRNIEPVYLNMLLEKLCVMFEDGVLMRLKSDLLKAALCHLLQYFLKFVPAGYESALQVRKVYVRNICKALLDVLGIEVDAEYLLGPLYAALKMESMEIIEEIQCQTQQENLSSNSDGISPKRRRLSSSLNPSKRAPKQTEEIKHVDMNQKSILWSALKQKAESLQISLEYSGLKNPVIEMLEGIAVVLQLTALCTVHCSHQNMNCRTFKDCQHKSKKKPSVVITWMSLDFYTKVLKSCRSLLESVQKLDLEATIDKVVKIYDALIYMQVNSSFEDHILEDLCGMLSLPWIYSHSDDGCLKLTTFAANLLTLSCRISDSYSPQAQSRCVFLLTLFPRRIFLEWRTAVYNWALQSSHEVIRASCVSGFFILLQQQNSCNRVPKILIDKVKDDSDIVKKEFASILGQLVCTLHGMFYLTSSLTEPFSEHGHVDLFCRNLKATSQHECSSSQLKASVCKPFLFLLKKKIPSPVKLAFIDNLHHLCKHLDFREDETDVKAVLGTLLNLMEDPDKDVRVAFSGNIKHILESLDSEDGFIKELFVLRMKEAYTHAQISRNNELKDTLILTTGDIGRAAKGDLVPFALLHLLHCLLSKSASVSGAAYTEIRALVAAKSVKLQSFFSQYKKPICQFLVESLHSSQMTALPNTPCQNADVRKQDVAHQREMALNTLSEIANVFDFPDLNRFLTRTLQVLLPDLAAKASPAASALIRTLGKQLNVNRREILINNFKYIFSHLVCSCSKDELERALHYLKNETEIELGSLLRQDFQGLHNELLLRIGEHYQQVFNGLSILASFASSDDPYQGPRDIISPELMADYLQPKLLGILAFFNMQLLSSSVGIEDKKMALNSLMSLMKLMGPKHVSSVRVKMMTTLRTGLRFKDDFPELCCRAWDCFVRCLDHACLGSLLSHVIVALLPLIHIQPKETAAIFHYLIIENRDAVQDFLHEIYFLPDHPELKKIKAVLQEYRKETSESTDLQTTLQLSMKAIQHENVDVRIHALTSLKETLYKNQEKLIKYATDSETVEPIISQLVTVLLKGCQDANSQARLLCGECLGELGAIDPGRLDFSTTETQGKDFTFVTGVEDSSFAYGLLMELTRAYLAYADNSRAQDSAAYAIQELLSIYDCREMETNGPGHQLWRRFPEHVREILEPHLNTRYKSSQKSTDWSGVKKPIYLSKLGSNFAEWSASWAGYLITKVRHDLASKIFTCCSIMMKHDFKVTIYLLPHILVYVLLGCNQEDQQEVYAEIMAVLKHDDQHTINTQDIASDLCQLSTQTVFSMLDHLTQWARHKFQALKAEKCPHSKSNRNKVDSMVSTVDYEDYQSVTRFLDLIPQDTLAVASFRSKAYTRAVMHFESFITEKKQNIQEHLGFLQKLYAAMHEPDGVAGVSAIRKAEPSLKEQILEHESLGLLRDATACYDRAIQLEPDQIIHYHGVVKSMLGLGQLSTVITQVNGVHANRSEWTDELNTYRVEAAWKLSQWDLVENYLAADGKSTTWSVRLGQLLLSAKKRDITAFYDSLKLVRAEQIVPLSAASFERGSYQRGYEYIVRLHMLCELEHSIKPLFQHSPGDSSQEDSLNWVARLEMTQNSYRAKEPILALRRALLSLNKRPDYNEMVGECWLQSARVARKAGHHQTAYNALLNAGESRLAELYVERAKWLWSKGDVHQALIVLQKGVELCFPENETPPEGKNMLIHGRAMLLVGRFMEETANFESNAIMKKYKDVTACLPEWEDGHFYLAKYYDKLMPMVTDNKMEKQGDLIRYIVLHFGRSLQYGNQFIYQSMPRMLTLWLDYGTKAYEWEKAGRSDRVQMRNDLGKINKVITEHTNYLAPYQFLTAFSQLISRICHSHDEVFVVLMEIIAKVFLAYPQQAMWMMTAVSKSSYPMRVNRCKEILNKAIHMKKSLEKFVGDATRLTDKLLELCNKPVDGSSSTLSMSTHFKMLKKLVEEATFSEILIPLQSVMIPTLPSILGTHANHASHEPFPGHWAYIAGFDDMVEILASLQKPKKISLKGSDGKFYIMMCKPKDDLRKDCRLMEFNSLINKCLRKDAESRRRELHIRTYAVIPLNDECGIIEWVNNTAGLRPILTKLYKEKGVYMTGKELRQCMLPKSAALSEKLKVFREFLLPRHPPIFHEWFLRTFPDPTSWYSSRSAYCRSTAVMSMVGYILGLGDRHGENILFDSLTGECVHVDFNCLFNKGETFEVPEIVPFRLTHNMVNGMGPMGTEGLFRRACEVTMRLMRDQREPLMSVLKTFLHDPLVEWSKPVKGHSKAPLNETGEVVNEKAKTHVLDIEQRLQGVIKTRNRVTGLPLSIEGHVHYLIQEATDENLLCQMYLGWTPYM
pIC50: −log10 of the molar value.
quantityName: pIC50

Please review the entries below; each comes with its answer.
O=c1cc(N2CCOCC2)oc2c(-c3ccccc3)cccc12 [LY-294002]	< 4.00
O=c1cc(N2CCOCC2)oc2c(-c3cccc4c3sc3ccccc34)cccc12	< 4.00

Now, please, on to the next compound.
Quick check: pIC50 of O=c1cc(N2CCOCC2)oc2c1ccc1ccccc12 ?
< 4.00
